Below, each entry is listed with its recorded mass density.
Details: 318.15 K; 60000 kPa; Liquid; Vibrating tube method

{"smiles-text": "Cc1ccc(C)s1", "mass density (kg/m3)": 1004.46}
{"smiles-text": "Cc1ccsc1", "mass density (kg/m3)": 1039.44}
{"smiles-text": "Cc1cccs1", "mass density (kg/m3)": 1038.69}
{"smiles-text": "c1ccsc1", "mass density (kg/m3)": 1082.65}

* * *

Below, each entry is listed with its recorded mass density.
Conditions: 308.15 K; 45000 kPa; Liquid; Vibrating tube method
metric: mass density (kg/m3)

{"smiles-text": "Cc1ccsc1", "val": 1038.84}
{"smiles-text": "Cc1ccc(C)s1", "val": 1003.53}
{"smiles-text": "Cc1cccs1", "val": 1038.08}
{"smiles-text": "c1ccsc1", "val": 1082.45}
